Quick reference: polymerase ribozyme fitness (log ratio) of the listed items.
B1: TPR t1 (parent)
chain: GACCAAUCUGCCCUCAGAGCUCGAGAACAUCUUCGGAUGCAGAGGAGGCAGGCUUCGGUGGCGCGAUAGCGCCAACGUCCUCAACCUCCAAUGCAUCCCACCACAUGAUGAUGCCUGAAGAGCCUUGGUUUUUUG

Variants of: B1
protocol_summary: polymerase ribozyme fitness, log enrichment relative to wild type (log ratio); higher = more active; in vitro selection for triplet polymerase activity
Just the number.

{"columns": ["variant_identifier", "recorded_value"],
 "data": [
  ["G48A C82A", -1.42],
  ["C31U G36U C73U C82A C86G G113U U133A", -6.04]
]}

QUERY: Please supply the value of reported polymerase ribozyme fitness (log ratio) for the item C12U C22A
RESULT: -4.93

QUERY: Please supply the value of reported polymerase ribozyme fitness (log ratio) for the item A6C U9A C15G G45A C62U C104A C124G
RESULT: -3.99
